# TESTED_ON: T1, human epidermal growth factor receptor (HER2) (human (endogenous in SKOV3, BT474, …, UniProt P04626 23-1255))
# T1 construct: HER2, endogenous on the human cancer cell lines SKOV3, BT474 (high expression) and DU145 (low expression); source: endogenous, on living SKOV3, BT474 and DU145 cells
# ASSAY_REMARKS: radioligand binding; LigandTracer, real time, living SKOV3 cells, room temperature; 0.5 and 2 nM radiolabeled G3 variant, then medium replaced for dissociation; fitted to a one-to-two Langmuir binding model (TraceDrawer); duplicates
# CONDITION_DESCRIPTION: one partner purified
Provide the reported KD2 (low affinity interaction of the one-to-two fit) of each item.
Answers are plain numbers, in nM.

Some entries whose results are on file:
[99mTc]Tc(CO)3-H6-G3 (DARPin G3 with a hexahistidine tag at the N-terminus) (designed binder, [99mTc]Tc(CO)3 on the histidine-containing tag (site-specific radiolabel), whole chain as printed; source: E. coli BL21(DE3), purified (HisTrap HP, MonoQ); not shown: His6, N-terminal, kept) MRGSHHHHHHGSDLGKKLLEAARAGQDDEVRILMANGADVNAKDEYGLTPLYLATAHGHLEIVEVLLKNGADVNAVDAIGFTPLHLAAFIGHLEIAEVLLKHGADVNAQDKFGKTAFDISIGNGNEDLAEILQKLN
3.3
[99mTc]Tc(CO)3-G3-(HE)3 (DARPin G3 with a HEHEHE tag at the C-terminus) (designed binder, [99mTc]Tc(CO)3 on the histidine-containing tag (site-specific radiolabel), whole chain as printed (after removal of SUMO at QIGG/DLGKK); source: E. coli BL21(DE3), made as a His6-SUMO fusion, purified (HisTrap HP, cut with ULP1, HisTrap flow-through, MonoQ); not shown: (HE)3 (HEHEHE), C-terminal, kept) DLGKKLLEAARAGQDDEVRILMANGADVNAKDEYGLTPLYLATAHGHLEIVEVLLKNGADVNAVDAIGFTPLHLAAFIGHLEIAEVLLKHGADVNAQDKFGKTAFDISIGNGNEDLAEILQKLNGSHEHEHE
1.8
[99mTc]Tc(CO)3-(HE)3-G3 (DARPin G3 with a HEHEHE tag at the N-terminus) (designed binder, [99mTc]Tc(CO)3 on the histidine-containing tag (site-specific radiolabel), whole chain as printed; source: E. coli BL21(DE3), purified (HisTrap HP without imidazole in lysate and wash, MonoQ); not shown: (HE)3 (HEHEHE), N-terminal, kept) MRGSHEHEHEGSDLGKKLLEAARAGQDDEVRILMANGADVNAKDEYGLTPLYLATAHGHLEIVEVLLKNGADVNAVDAIGFTPLHLAAFIGHLEIAEVLLKHGADVNAQDKFGKTAFDISIGNGNEDLAEILQKLN
1.2

Next binder, KD2 (low affinity interaction of the one-to-two fit) to be filled in.
IN: Would you mind telling me what KD2 (low affinity interaction of the one-to-two fit) value was observed for [99mTc]Tc(CO)3-G3-H6 (DARPin G3 with a hexahistidine tag at the C-terminus) (designed binder, [99mTc]Tc(CO)3 on the histidine-containing tag (site-specific radiolabel), whole chain as printed; source: E. coli BL21(DE3), purified (HisTrap HP, MonoQ); not shown: His6, C-terminal, kept) MDLGKKLLEAARAGQDDEVRILMANGADVNAKDEYGLTPLYLATAHGHLEIVEVLLKNGADVNAVDAIGFTPLHLAAFIGHLEIAEVLLKHGADVNAQDKFGKTAFDISIGNGNEDLAEILQKLNGSHHHHHH ?
OUT: 2.5
